meta.source: PubChem BioAssay AID2073

# Target Desc: Voltage-dependent N-type calcium channel subunit alpha-1B (Homo sapiens) (UniProt Q00975)
# Sequence (Q00975 whole entry, looked up): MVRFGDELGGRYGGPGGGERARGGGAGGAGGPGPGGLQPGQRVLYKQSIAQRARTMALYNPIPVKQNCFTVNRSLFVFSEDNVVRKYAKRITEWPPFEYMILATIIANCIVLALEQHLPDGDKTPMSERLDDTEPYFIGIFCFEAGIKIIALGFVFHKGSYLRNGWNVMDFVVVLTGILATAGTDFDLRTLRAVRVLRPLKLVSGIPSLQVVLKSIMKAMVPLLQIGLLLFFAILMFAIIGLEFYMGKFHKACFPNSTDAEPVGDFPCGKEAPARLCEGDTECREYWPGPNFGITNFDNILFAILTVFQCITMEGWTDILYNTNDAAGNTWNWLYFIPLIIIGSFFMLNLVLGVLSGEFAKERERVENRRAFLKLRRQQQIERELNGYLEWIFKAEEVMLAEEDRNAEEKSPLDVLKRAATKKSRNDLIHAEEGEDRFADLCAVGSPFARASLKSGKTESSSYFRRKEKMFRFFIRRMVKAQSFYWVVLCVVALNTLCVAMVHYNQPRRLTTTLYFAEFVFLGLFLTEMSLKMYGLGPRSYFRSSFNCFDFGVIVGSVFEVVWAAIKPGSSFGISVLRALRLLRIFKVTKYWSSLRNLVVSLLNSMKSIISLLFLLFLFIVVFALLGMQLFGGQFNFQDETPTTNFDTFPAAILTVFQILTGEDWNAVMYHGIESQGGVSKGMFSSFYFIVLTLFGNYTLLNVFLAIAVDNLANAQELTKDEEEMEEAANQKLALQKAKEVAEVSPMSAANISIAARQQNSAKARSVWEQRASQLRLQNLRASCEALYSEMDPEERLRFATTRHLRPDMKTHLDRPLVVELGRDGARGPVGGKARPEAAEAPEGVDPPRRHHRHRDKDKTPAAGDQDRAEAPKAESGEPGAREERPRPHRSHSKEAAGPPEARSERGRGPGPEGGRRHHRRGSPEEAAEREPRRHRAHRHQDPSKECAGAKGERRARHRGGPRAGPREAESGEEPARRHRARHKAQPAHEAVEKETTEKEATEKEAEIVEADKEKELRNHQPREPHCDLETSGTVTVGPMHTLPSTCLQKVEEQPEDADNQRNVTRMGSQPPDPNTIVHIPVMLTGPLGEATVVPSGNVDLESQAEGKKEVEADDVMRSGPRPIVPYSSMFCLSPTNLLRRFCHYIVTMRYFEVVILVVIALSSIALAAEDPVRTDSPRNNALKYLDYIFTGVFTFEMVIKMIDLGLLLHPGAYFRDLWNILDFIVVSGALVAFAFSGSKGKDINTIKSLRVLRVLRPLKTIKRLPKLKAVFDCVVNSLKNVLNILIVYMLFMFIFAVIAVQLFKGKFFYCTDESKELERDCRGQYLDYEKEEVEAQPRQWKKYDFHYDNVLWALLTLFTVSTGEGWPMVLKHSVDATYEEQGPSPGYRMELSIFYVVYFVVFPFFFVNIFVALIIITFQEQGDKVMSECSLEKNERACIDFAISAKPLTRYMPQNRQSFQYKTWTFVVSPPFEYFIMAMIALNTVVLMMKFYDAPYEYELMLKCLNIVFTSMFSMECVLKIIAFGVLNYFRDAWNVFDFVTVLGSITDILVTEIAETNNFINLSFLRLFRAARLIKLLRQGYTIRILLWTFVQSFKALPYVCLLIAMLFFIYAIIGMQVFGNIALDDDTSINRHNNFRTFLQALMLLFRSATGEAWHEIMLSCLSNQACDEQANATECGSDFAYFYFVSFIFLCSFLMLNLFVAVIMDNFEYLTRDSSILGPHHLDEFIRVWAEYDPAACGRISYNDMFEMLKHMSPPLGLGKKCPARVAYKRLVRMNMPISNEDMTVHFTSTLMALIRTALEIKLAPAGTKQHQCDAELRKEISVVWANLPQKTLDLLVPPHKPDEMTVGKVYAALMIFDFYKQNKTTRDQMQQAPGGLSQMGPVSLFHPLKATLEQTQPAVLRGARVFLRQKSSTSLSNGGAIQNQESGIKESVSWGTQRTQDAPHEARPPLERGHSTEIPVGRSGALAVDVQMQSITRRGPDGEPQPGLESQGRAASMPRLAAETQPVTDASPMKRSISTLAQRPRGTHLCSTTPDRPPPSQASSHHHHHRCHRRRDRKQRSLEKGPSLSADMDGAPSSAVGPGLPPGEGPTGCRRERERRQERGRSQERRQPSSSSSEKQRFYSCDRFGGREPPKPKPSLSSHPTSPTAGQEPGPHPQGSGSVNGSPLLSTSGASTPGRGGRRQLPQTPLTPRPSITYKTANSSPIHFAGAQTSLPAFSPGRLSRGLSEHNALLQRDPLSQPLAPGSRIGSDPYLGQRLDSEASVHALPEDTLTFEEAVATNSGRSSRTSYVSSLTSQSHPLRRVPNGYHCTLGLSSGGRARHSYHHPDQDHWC
# Test Details: disruptors of CaV2.2 binding to Mint1 – biochemical, HTRF (AID 2073)
# Run Conditions: HTRF protein-protein interaction, Mint1-CaV2.2; at 20 µM; active compounds read high
Hit rate of the full screen: of about 290,000 compounds, about 570 (0.2%) were called active. Roughly 1% stayed inconclusive and do not appear here. For the sample, actives were picked, then their nearest neighbours and some compounds at random.
Test Readout: inhibition (%)
Report the figure in % without appending any unit label.

> print(dat)
                                   compound  quantitative.readout
1    O=C(O)C(O)c1ccco1 (stereo unspecified)                  65.3
2  N#CC1(C#N)[C@@H](C(=O)C23CC4CC(CC(C4)C2)C3)C12CCOCC2                     0
3  CC1CN(S(=O)(=O)c2ccccc2)C(C)CN1S(=O)(=O)c1ccccc1 (stereo unspecified)                   2.3

INPUT: Recorded inhibition for "Cc1ccc(-c2csc(C3=C(O)CN(NC(=O)c4ccc([N+](=O)[O-])cc4)C3=N)n2)cc1" , please?
OUTPUT: 25.8
